method_description: J774-Dual cytotoxicity
Assay type: cell-based, mouse
condition_parameters: mouse, J774-Dual cells, Mouse Reporter Cell Line; read-out: J774 cytotox CC50
readout_name: CC50

Solved entries:
molecule: Cc1cccc(C(=O)Nc2ccc(N3CCN(C(=O)c4cccs4)CC3)cc2)c1C
readout_name: CC50
assay_result: > 25 µM
//
molecule: O=C(Cc1cc(Br)cc(Br)c1)Nc1ccc(N2CCN(C(=O)c3cccs3)CC2)cc1
readout_name: CC50
assay_result: > 25 µM
//
molecule: O=C(Nc1ccc(N2CCN(C(=O)c3cccs3)CC2)c(Cl)c1)c1ccc2c(c1)OCCO2
readout_name: CC50
assay_result: 45.8 µM
//
molecule: Cc1ccc(COc2ccc(C(=O)Nc3ccc(N4CCN(C(=O)c5cccs5)CC4)cc3)cc2)cc1
readout_name: CC50
assay_result: > 25 µM
//
molecule: COc1ccc(C(=O)Nc2ccc(OCc3ccccc3)cc2)cc1[N+](=O)[O-]
readout_name: CC50
assay_result: > 25 µM
//
molecule: CC(=O)N1CCN(c2ccc(NC(=O)c3ccc(OCc4ccccc4)cc3)cc2)CC1
readout_name: CC50
assay_result: > 25 µM
//
molecule: COC(=O)COc1cccc(NC(=O)c2ccc(NC(=O)c3ccco3)cc2)c1
readout_name: CC50
assay_result: > 25 µM
//
molecule: O=C(c1cccs1)N1CCN(c2ccc(NS(=O)(=O)c3ccc(-c4ccccc4)cc3)cc2)CC1
readout_name: CC50
assay_result: > 10 µM

Which CC50 reading was recorded for the molecule `O=C(Nc1ccc(N2CCN(C(=O)c3cccs3)CC2)cc1)c1ccc(OCc2ccc(OC(F)(F)F)cc2)cc1` ? > 25 µM

Which CC50 reading was recorded for the molecule `O=C(Nc1ccc(N2CCN(C(=O)c3ccccc3)CC2)cc1)c1ccc(OCc2ccccc2)cc1` ? > 25 µM

Which CC50 reading was recorded for the molecule `O=C(Nc1ccc(N2CCN(C(=O)c3cccs3)CC2)cc1)c1ccc(Cl)c2ccccc12` ? > 25 µM

Which CC50 reading was recorded for the molecule `O=C(Nc1ccc(N2CCN(C(=O)c3cccs3)CC2)cc1)c1cncc(-c2ccccc2)c1` ? > 25 µM

Which CC50 reading was recorded for the molecule `O=C(Nc1ccc(N2CCN(C(=O)c3cccc(Cl)c3)CC2)cc1)c1ccc(OCc2ccccc2)cc1` ? > 25 µM

Which CC50 reading was recorded for the molecule `O=C(Nc1ccc(N2CCN(C(=O)c3ccccc3)CC2)cc1)c1ccc(-c2cccnc2)cc1` ? 29.2 µM

Which CC50 reading was recorded for the molecule `O=C(c1cccs1)N1CCN(Cc2cn(Cc3ccccc3Cl)nn2)CC1` ? > 25 µM

Which CC50 reading was recorded for the molecule `COc1ccc(C(=O)Nc2ccc(N3CCN(C(=O)c4cccs4)CC3)cc2)cc1[N+](=O)[O-]` ? > 25 µM

Which CC50 reading was recorded for the molecule `COc1ccc(C(=O)Nc2ccc(N3CCN(C(=O)c4cccs4)CC3)cc2)c2ccccc12` ? > 25 µM

Which CC50 reading was recorded for the molecule `O=C(Nc1ccc(N2CCN(C(=O)c3cccnc3)CC2)cc1)c1ccc(OCc2ccccc2)cc1` ? > 25 µM

Which CC50 reading was recorded for the molecule `O=C(Nc1ccc(N2CCN(C(=O)c3cccs3)CC2)c(Cl)c1)c1ccc(OCc2ccccc2)cc1` ? > 10 µM

Which CC50 reading was recorded for the molecule `O=C(Nc1ccc(N2CCN(C(=O)c3cccs3)CC2)cc1)c1cccc2c(Br)cccc12` ? 63.8 µM

Which CC50 reading was recorded for the molecule `O=C(Nc1ccc(N2CCN(C(=O)c3cccs3)CC2)cc1)c1cccc2ccccc12` ? > 25 µM

Which CC50 reading was recorded for the molecule `O=C(Nc1ccc(N2CCN(C(=O)c3cccs3)CC2)cc1)c1ccccc1Br` ? > 10 µM

====

method_description: THP1-Dual cytotoxicity (Cell Titer Glo, ATP)
Format: cell-based, human
condition_parameters: human, THP1-Dual cells, Human Reporter Cell Line; read-out: Thp1 cytotox CC50
readout_name: CC50

Solved entries:
given_smiles: Cc1cc(NC(=O)c2sc3cc(Cl)ccc3c2Cl)ccc1NC(=O)c1ccco1
CC50: > 25 µM

given_smiles: CCOc1cccc(COc2ccc(C(=O)Nc3ccc(N4CCN(C(=O)c5cccs5)CC4)cc3)cn2)c1
CC50: > 10 µM

given_smiles: COc1ccc(C(=O)Nc2ccc(N3CCN(C(=O)c4cccs4)CC3)cc2)cc1[N+](=O)[O-]
CC50: > 25 µM

given_smiles: CC(=O)N1CCN(c2ccc(NC(=O)c3ccc(OCc4ccccc4)cc3)cc2)CC1
CC50: > 25 µM

Which CC50 reading was recorded for the compound `O=C(Cc1cc(Br)cc(Br)c1)Nc1ccc(N2CCN(C(=O)c3cccs3)CC2)cc1` ? > 25 µM

Which CC50 reading was recorded for the compound `O=C(Nc1ccc(N2CCN(C(=O)c3cccs3)CC2)cc1)c1ccc(Cl)c2ccccc12` ? > 25 µM

Which CC50 reading was recorded for the compound `O=C(Nc1ccc(-c2ccccc2)cc1)Nc1ccc(N2CCN(C(=O)c3cccs3)CC2)cc1` ? > 10 µM

Which CC50 reading was recorded for the compound `CCOc1ccc(C(=O)Nc2ccc(N3CCN(C(=O)c4cccs4)CC3)cc2)cc1[N+](=O)[O-]` ? > 10 µM

====

Test system: NF-κB-SEAP reporter in THP1-Dual cells
method_description: THP1-Dual NF-κB-SEAP reporter counterscreen
Format: cell-based, human
condition_parameters: Homo sapiens, THP1-Dual, Human Reporter Cell Line, 8-point dose response; read-out: THP1 NFkB EC50
Measured pEC50 values are reported for all entries that follow.
Please report pEC50 as the negative decimal logarithm of the molar concentration, giving only the number.

given_smiles: O=C(Nc1ccc(N2CCN(C(=O)c3cccs3)CC2)cc1)c1ccc(Cl)c2ccccc12
readout_name: pEC50
assay_result: 5.91

given_smiles: O=C(Nc1ccc(N2CCN(C(=O)c3cccs3)CC2)cc1)c1ccc(OCc2ccc(OC(F)(F)F)cc2)cc1
readout_name: pEC50
assay_result: 5.20

given_smiles: O=C(Nc1ccc(N2CCN(C(=O)c3ccsc3)CC2)cc1)c1ccc(OCc2ccccc2)nc1
readout_name: pEC50
assay_result: 5.68

given_smiles: Cc1ccc(COc2ccc(C(=O)Nc3ccc(N4CCN(C(=O)c5cccs5)CC4)cc3)cc2)cc1
readout_name: pEC50
assay_result: 5.30

given_smiles: CCOc1cccc(COc2ccc(C(=O)Nc3ccc(N4CCN(C(=O)c5cccs5)CC4)cc3)cc2)c1
readout_name: pEC50
assay_result: 5.52

given_smiles: O=C(Nc1ccc(N2CCN(C(=O)c3cccs3)CC2)cc1)c1cccc2c(Br)cccc12
readout_name: pEC50
assay_result: 5.97

Moving on to the next compound.
Which pEC50 reading was recorded for the compound `O=C(Nc1ccc(N2CCN(C(=O)c3cccs3)CC2)cc1)c1ccc(-c2ccccc2)cn1` ? 5.10

====

method_description: J774-Dual cytotoxicity
Assay type: cell-based, mouse
condition_parameters: mouse, J774-Dual cells, Mouse Reporter Cell Line J774; read-out: J774 cytotox CC50
readout_name: CC50

Solved entries:
given_smiles: Cc1ccc(-c2nc3cc(OCCCCl)ccc3o2)cc1[N+](=O)[O-]
CC50: > 25 µM
--
given_smiles: Cc1ccc(-c2nc3ccccc3s2)cc1NC(=O)c1ccc(C(F)(F)F)c([N+](=O)[O-])c1
CC50: > 25 µM
--
given_smiles: COc1ccc(C(=O)Nc2cc(-c3nc4cc(C)c(C)cc4o3)ccc2Cl)cc1[N+](=O)[O-]
CC50: > 25 µM
--
given_smiles: COc1ccc(NC(=O)c2cc(NC(=O)c3cccs3)ccc2N2CCOCC2)cc1Cl
CC50: > 25 µM
--
given_smiles: Cc1ccc(C(=O)Nc2cc(-c3nc4cc(C(C)C)ccc4o3)ccc2C)cc1C
CC50: > 25 µM

Which CC50 reading was recorded for the compound `O=C(Nc1nc2ccc3scnc3c2s1)c1ccc2ccccc2c1` ? > 25 µM

Which CC50 reading was recorded for the compound `Cc1cc2nc(-c3ccc(C)c(N)c3)oc2cc1C` ? > 25 µM

Which CC50 reading was recorded for the compound `COc1ccc2nc(NC(=O)c3ccc(OC)c([N+](=O)[O-])c3)sc2c1` ? > 25 µM

Which CC50 reading was recorded for the compound `Cc1ccc(-c2nc3ccccc3s2)cc1NC(=O)c1cccc(Cl)c1` ? > 25 µM

Which CC50 reading was recorded for the compound `Cc1ccc(C(=O)Nc2ccc3oc(-c4cccnc4)nc3c2)c(Cl)c1` ? > 25 µM

====

Measured pEC50 values are reported for all entries that follow.
System: NF-κB-SEAP reporter in THP1-Dual cells
method_description: THP1-Dual NF-κB-SEAP reporter counterscreen
Type: cell-based, human
condition_parameters: Homo sapiens, THP1-Dual, Human Reporter Cell Line, 8-point dose response; read-out: THP1 NFkB EC50
pEC50: −log10 of the molar value.

Solved entries:
given_smiles: Cc1c(Br)ccc(C(=O)Nc2ccc(N3CCN(C(=O)c4cccs4)CC3)cc2)c1C
measurement_target: NF-κB-SEAP reporter in THP1-Dual cells
pEC50: ~5.28
--
given_smiles: CCCCOc1nc(N)c2c(n1)N(Cc1cccc(CN3CCCC3)c1)CC(=O)N2
measurement_target: NF-κB-SEAP reporter in THP1-Dual cells
pEC50: 5.53

// map `COC(=O)Cc1ccc(NC(=O)c2ccc(NC(=O)c3ccco3)cc2)cc1` to recorded pEC50 (system: NF-κB-SEAP reporter in THP1-Dual cells) ~5.21

// map `O=C(Nc1ccc(N2CCN(C(=O)c3cccs3)CC2)cc1)c1ccc(Br)cc1` to recorded pEC50 (system: NF-κB-SEAP reporter in THP1-Dual cells) ~5.62

// map `COc1c(C)cc(Br)cc1C(=O)Nc1ccc(N2CCN(C(=O)c3cccs3)CC2)cc1` to recorded pEC50 (system: NF-κB-SEAP reporter in THP1-Dual cells) ~5.49
